# assayed-target: human TRPM8 (Homo sapiens, UniProt Q7Z2W7)
# Construct: expressed in transfected cells; host or cells: Chinese hamster ovary (CHO) cells, T-REx tetracycline-inducible system, co-transfected with aequorin
# Sequence (Q7Z2W7 whole entry): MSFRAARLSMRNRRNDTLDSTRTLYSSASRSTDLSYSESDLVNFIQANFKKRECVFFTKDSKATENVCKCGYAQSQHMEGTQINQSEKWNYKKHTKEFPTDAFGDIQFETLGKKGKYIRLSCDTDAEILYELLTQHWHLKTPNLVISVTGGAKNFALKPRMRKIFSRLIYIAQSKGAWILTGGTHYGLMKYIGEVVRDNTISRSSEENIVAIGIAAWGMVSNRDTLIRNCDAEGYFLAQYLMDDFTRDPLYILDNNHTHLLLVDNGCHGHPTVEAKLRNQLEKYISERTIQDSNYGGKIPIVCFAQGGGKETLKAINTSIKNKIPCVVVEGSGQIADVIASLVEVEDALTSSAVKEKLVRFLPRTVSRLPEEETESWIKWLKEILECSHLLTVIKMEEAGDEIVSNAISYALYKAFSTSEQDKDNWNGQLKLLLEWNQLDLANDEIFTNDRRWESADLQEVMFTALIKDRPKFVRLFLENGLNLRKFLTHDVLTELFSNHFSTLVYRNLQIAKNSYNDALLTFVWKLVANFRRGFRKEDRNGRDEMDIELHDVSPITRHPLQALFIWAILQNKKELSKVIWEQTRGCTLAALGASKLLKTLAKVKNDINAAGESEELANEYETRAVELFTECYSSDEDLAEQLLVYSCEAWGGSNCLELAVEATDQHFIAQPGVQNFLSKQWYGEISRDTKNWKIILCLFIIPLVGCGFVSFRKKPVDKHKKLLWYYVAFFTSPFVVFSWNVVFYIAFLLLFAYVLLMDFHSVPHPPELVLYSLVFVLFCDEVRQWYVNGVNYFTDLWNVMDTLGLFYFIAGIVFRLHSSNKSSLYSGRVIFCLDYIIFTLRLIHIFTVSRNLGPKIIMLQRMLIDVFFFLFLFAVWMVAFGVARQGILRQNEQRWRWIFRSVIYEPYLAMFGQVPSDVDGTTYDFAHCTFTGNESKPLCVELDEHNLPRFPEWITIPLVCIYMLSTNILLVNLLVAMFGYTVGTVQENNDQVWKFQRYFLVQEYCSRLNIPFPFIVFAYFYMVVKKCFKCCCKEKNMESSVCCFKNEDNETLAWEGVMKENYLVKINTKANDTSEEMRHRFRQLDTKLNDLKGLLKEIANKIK
# assay-notes: Luminescence readout assay for measuring intracellular calcium, icilin activation
# Type: cell-based
# study-conditions: CHO cells expressing human TRPM8, aequorin luminescence, 1 μM icilin activation; read-out: hTRPM8 IC50
pIC50: −log10 of the molar value.
quantity: pIC50

>  <compound>
O=C(N[C@@H](c1ccc(OC(F)(F)F)cc1F)c1ncccc1F)c1ccc(=O)[nH]c1 [Example 386, 2,2,2-trifluoroacetate]

>  <test-result>
7.98

$$$$
>  <compound>
O=C(N[C@@H](c1ccc(OC(F)(F)F)c(F)c1)c1ncccc1F)c1c[nH]c(=O)c(F)c1

>  <test-result>
8.16

$$$$
>  <compound>
O=C(N[C@@H](c1ccc(C(F)(F)F)cc1)c1ncccc1F)c1ccc(=O)n(C2COC2)c1

>  <test-result>
7.53

$$$$
>  <compound>
CC(C)(C)OC(=O)N1CCCC(C(=O)N[C@@H](c2ccc(C(F)(F)F)cc2)c2ncccc2C(F)(F)F)C1 (stereo partly shown)

>  <test-result>
6.84

$$$$

---

# assayed-target: human TRPM8 (Homo sapiens, UniProt Q7Z2W7)
# Construct: expressed in transfected cells; host or cells: Chinese hamster ovary (CHO) cells, T-REx tetracycline-inducible system, co-transfected with aequorin
# assay-notes: Luminescence readout assay for measuring intracellular calcium, icilin activation
# Assay type: cell-based
# study-conditions: CHO cells expressing human TRPM8, aequorin luminescence, 1 μM icilin activation; read-out: hTRPM8 IC50
Attribute: IC50

>  <compound>
C=CCN1C(=O)c2ccc(C(=O)N[C@@H](c3ccc(C(F)(F)F)cc3)c3ncccc3C(F)(F)F)cc2C1=O

>  <assayed-target>
human TRPM8 (Homo sapiens, UniProt Q7Z2W7)

>  <IC50>
156 nM

$$$$
>  <compound>
O=C1Cc2cc(C(=O)N[C@@H](c3ccc(C(F)(F)F)cc3)c3ncccc3C(F)(F)F)ccc2N1

>  <assayed-target>
human TRPM8 (Homo sapiens, UniProt Q7Z2W7)

>  <IC50>
9.2 nM

$$$$
>  <compound>
O=C(O)Cn1cc(C(=O)N[C@@H](c2ccc(OC(F)(F)F)c(F)c2)c2ncccc2F)ccc1=O

>  <assayed-target>
human TRPM8 (Homo sapiens, UniProt Q7Z2W7)

>  <IC50>
1290 nM

$$$$
>  <compound>
CS(=O)(=O)c1cccc(C(=O)N[C@@H](c2ccc(C(F)(F)F)cc2)c2ncccc2F)c1

>  <assayed-target>
human TRPM8 (Homo sapiens, UniProt Q7Z2W7)

>  <IC50>
143 nM

$$$$
>  <compound>
O=C(NC(c1ccc(OC(F)(F)F)c(F)c1)c1cccc(F)c1F)c1ccc(=O)[nH]c1 (stereo not shown)

>  <assayed-target>
human TRPM8 (Homo sapiens, UniProt Q7Z2W7)

>  <IC50>
48 nM

$$$$
>  <compound>
Cc1nccn1CC(=O)N[C@@H](c1ccc(C(F)(F)F)cc1)c1ncccc1C(F)(F)F

>  <assayed-target>
human TRPM8 (Homo sapiens, UniProt Q7Z2W7)

>  <IC50>
3320 nM

$$$$
>  <compound>
O=C(CC1CCOC1)N[C@@H](c1ccc(C(F)(F)F)cc1)c1ncccc1C(F)(F)F (stereo partly shown)

>  <assayed-target>
human TRPM8 (Homo sapiens, UniProt Q7Z2W7)

>  <IC50>
716 nM

$$$$

---

Below, each entry is listed alongside its reported pIC50.
# assayed-target: human TRPM8 (Homo sapiens)
# Construct: expressed in transfected cells; host or cells: Chinese hamster ovary (CHO) cells, T-REx tetracycline-inducible system, co-transfected with aequorin
# assay-notes: Luminescence readout assay for measuring intracellular calcium, icilin activation
# Assay type: cell-based
# study-conditions: CHO cells expressing human TRPM8, aequorin luminescence, 1 μM icilin activation; read-out: hTRPM8 IC50
pIC50: −log10 of the molar value.
quantity: pIC50

>  <molecule>
O=C(N[C@@H](c1ccc(C(F)(F)F)cc1)c1ncccc1F)c1ccn2ccnc2c1 [Example 86]

>  <quantity>
pIC50

>  <test-result>
7.99

$$$$
>  <molecule>
CC(C)(O)Cn1cc(C(=O)N[C@@H](c2ccc(C(F)(F)F)cc2)c2ncccc2F)ccc1=O [Example 303]

>  <quantity>
pIC50

>  <test-result>
6.84

$$$$
>  <molecule>
O=C(N[C@@H](c1ccc(OC(F)(F)F)c(F)c1)c1ncccc1Br)c1ccc2oc(=O)[nH]c2c1 [Example 384]

>  <quantity>
pIC50

>  <test-result>
8.24

$$$$
>  <molecule>
COc1ccc([C@H](NC(=O)c2ccc(=O)n(C)c2)c2ncccc2F)cc1 [Example 343]

>  <quantity>
pIC50

>  <test-result>
5.83

$$$$
>  <molecule>
O=C(N[C@@H](c1ccc(C(F)(F)F)cc1)c1cnccc1C(F)(F)F)c1ccc2ncccc2c1 [Example 260, bis (2,2,2-trifluoroacetate)]

>  <quantity>
pIC50

>  <test-result>
6.51

$$$$
>  <molecule>
O=C(N[C@@H](c1ccc(Cl)cc1)c1ncccc1C(F)(F)F)c1ccc2cccnc2c1 [Example 6]

>  <quantity>
pIC50

>  <test-result>
7.13

$$$$
>  <molecule>
CCn1cc(C(=O)N[C@@H](c2ccc(OC(F)(F)F)c(F)c2)c2ncccc2F)ccc1=O [Example 366]

>  <quantity>
pIC50

>  <test-result>
8.01

$$$$
>  <molecule>
O=C(N[C@@H](c1ccc(C(F)(F)F)cc1)c1ncccc1C(F)(F)F)c1cc2cccnc2[nH]1 [Example 66]

>  <quantity>
pIC50

>  <test-result>
6.39

$$$$
>  <molecule>
O=C(N[C@@H](c1ccc(C(F)(F)F)cc1)c1ncccc1C(F)(F)F)c1ccc(C(=O)O)c(Br)c1 [Example 100]

>  <quantity>
pIC50

>  <test-result>
7.21

$$$$
>  <molecule>
N#Cc1cccc(C(=O)N[C@@H](c2ccc(C(F)(F)F)cc2)c2ncccc2C(F)(F)F)c1 [Example 168]

>  <quantity>
pIC50

>  <test-result>
7.42

$$$$
>  <molecule>
O=C(N[C@@H](c1ccc(C(F)(F)F)cc1)c1ncccc1F)c1c[nH]c(=O)cn1 [Example 319]

>  <quantity>
pIC50

>  <test-result>
6.88

$$$$
>  <molecule>
O=C(N[C@@H](c1ccc(C(F)(F)F)cc1)c1ncccc1F)c1ccc(-c2nc(=O)o[nH]2)cc1 [Example 315]

>  <quantity>
pIC50

>  <test-result>
7.44

$$$$
>  <molecule>
O=C(N[C@@H](c1ccc(OC(F)(F)F)c(F)c1)c1ncccc1C(F)(F)F)c1ccc2oc(=O)[nH]c2c1 [Example 385]

>  <quantity>
pIC50

>  <test-result>
8.17

$$$$
>  <molecule>
Cc1cc(C)n2nc(C(=O)N[C@@H](c3ccc(C(F)(F)F)cc3)c3ncccc3C(F)(F)F)cc2n1 [Example 149]

>  <quantity>
pIC50

>  <test-result>
6.40

$$$$
>  <molecule>
O=C(N[C@@H](c1ccc(OC(F)(F)F)c(F)c1)c1ncccc1F)c1c[nH]c(=O)c(C(F)(F)F)c1 [Example 402]

>  <quantity>
pIC50

>  <test-result>
6.92

$$$$

---

# assayed-target: human TRPM8 (Homo sapiens)
# Construct: expressed in transfected cells; host or cells: Chinese hamster ovary (CHO) cells, T-REx tetracycline-inducible system, co-transfected with aequorin
# assay-notes: Luminescence readout assay for measuring intracellular calcium, icilin activation
# Assay type: cell-based
# study-conditions: CHO cells expressing human TRPM8, aequorin luminescence, 1 μM icilin activation; read-out: hTRPM8 IC50
pIC50: −log10 of the molar value.
// label = satisfied if pIC50 is not less than 7, otherwise not satisfied

>  <compound>
O=C(O)c1ccc(C(=O)N[C@@H](c2ccc(C(F)(F)F)cc2)c2ncccc2F)nc1

>  <assayed-target>
human TRPM8 (Homo sapiens)

>  <assigned-class>
satisfied

$$$$
>  <compound>
O=C(N[C@@H](c1ccc(C(F)(F)F)cc1)c1ncccc1Cl)c1ccc(=O)[nH]c1 [Example 248, 2,2,2-trifluoroacetate]

>  <assayed-target>
human TRPM8 (Homo sapiens)

>  <assigned-class>
satisfied

$$$$
>  <compound>
COC(=O)c1ccc(C(=O)N[C@@H](c2ccc(OC(F)(F)F)c(F)c2)c2ccccn2)nc1

>  <assayed-target>
human TRPM8 (Homo sapiens)

>  <assigned-class>
not satisfied

$$$$
>  <compound>
O=C(N[C@@H](c1ccc(F)cc1)c1ncccc1C(F)(F)F)c1ccccc1

>  <assayed-target>
human TRPM8 (Homo sapiens)

>  <assigned-class>
not satisfied

$$$$
>  <compound>
CN(C)c1cccc(C(=O)N[C@@H](c2ccc(C(F)(F)F)cc2)c2ncccc2C(F)(F)F)c1

>  <assayed-target>
human TRPM8 (Homo sapiens)

>  <assigned-class>
satisfied

$$$$
>  <compound>
O=C(N[C@@H](c1ccc(C(F)(F)F)cc1)c1ncccc1C(F)(F)F)c1ccc2nnnn2c1

>  <assayed-target>
human TRPM8 (Homo sapiens)

>  <assigned-class>
satisfied

$$$$
